- target_of_assay: T1, Tpz1^475–508-Poz1 complex (S. pombe, UniProt O14246 475-508; O13852 1-249)
- T1 sequence (looked up) 1: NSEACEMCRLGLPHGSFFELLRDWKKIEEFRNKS
- T1 sequence (looked up) 2: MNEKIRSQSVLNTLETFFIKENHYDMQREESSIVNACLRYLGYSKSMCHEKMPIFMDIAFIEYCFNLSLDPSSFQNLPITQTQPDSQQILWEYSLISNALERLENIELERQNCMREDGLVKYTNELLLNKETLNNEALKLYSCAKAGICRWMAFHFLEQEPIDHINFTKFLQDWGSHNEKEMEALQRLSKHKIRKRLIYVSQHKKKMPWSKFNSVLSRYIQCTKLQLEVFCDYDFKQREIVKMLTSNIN
- assay_info: ITC
endpoint: pKd
pKd (log units): -log10 of the concentration in mol/L.

The binder listed as Rap1^446-523 (domain or fragment, S. pombe, UniProt Q96TL7 446-523, looked up) EKTLRETSFRSLDDMSLRKSNSDNIFVKPGEDLEIPLLSDYSDSENISEKSSDDEEAFEKQVTSSYSSPIKVKSQGKS shows pKd equal to 6.32
